Please go through the items and note down their inhibition at 10 µM.
# System under test: AVP-V₁ sites (Rattus norvegicus)
# Construct: crude membrane preparation of male rat liver (AVP-V₁ sites); from tissue; host or cells: male rat liver, crude membrane preparation
# Sequence (P30560 whole entry): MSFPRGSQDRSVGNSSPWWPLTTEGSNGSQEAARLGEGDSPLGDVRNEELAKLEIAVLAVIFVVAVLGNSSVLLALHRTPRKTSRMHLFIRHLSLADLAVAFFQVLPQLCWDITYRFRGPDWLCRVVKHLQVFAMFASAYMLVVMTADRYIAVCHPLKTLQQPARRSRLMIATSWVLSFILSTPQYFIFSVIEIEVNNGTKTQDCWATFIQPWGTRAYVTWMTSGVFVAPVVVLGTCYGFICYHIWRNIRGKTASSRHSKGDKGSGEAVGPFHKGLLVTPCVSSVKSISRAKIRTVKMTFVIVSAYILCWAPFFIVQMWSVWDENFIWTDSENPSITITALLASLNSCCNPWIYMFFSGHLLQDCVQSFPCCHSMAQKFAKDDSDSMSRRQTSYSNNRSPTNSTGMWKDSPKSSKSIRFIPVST
# Assay details: [³H]AVP radioligand binding assay, crude membrane preparation of male rat liver
# Condition description: @ 10 µM test compound, 1 nM [³H]AVP, read-out: Inhibition Vasopressin V1 % inhibition
Your answer should be a plain number; it is taken to be in %.

Exercise: Could you share which inhibition at 10 µM value was measured for CC1(C)[C@@H]2CC[C@@]1(CS(=O)(=O)NCCC1CCc3ccccc31)[C@H](O)C2 (stereo partly shown) ?
Key: 51

Exercise: Same read-out for CC1(C)C2CCC1(C)C(O)C2CC(=O)N1CCC2(C=Cc3ccccc32)CC1 (stereo not shown) ?
Key: 11

Exercise: Same read-out for CC1(C)[C@@H]2CC[C@@]1(CS(=O)(=O)N1CCC3(C=Cc4ccccc43)CC1)C(O)(c1ccccc1)C2 (stereo partly shown) ?
Key: 54

Exercise: Same read-out for O=S(=O)(c1ccc(F)cc1)N1CCC2(C=Cc3ccccc32)CC1 ?
Key: 0
